Values compiled from paper PMC5943959.

- Tested system: hCA VA (Homo sapiens)
- Construct: made in house
- Test name: stopped-flow CO2 hydrase assay, hCA VA
- Type: biochemical
- Condition details: recombinant enzyme; errors ± 5–10%, 3 assays; read-out: Ki hCA VA
Reported property: pKi
Please treat pKi as minus the base-10 logarithm of the molar concentration.

Input line: Look up pKi for this compound: `O=C(Cc1ccccc1)Nc1ccc(C(=O)O)cc1`
Output line: 6.58

Input line: Note, next up: `CC1=NN(c2ccc(C)cc2)C(=O)/C1=C/Nc1ccc(C(=O)O)cc1[N+](=O)[O-]`
Output line: 6.81

Input line: Note, next up: `O=C(O)c1ccc(Sc2nnc(-c3cccc(Br)c3)o2)c([N+](=O)[O-])c1`
Output line: 6.08

Input line: Note, next up: `O=C(O)c1ccc(Sc2nnnn2-c2ccccc2)c([N+](=O)[O-])c1`
Output line: 6.13

Input line: Note, next up: `O=C(O)c1ccc(NCCc2ccc(Cl)cc2)c([N+](=O)[O-])c1`
Output line: 5.93

Input line: Note, next up: `CC(C)(C)OC(=O)N1CCC(Nc2ccc(C(=O)O)cc2[N+](=O)[O-])CC1`
Output line: 6.96

Input line: Note, next up: `Cc1ccc(S(=O)(=O)c2ccc(C(=O)O)cc2[N+](=O)[O-])cc1`
Output line: 6.45

Input line: Note, next up: `O=C(O)c1ccc(Sc2ccccn2)c([N+](=O)[O-])c1`
Output line: 6.85

Input line: Note, next up: `O=C(O)c1ccc(N2CCc3ccccc32)c([N+](=O)[O-])c1`
Output line: 5.88

----------
- Tested system: hCA VA (Homo sapiens, UniProt P35218)
- Construct: made in house
- Sequence (P35218 39-305): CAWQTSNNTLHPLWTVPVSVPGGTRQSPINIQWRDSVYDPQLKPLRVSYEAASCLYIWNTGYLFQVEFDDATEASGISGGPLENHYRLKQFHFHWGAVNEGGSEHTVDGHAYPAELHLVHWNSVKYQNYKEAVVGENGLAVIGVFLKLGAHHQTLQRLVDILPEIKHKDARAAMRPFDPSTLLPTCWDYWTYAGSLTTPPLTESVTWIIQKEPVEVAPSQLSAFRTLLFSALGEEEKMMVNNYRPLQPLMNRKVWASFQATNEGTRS
- Test name: stopped-flow CO2 hydrase assay, hCA VA
- Assay type: biochemical
pKi: −log10 of the molar value.
Reported property: pKi

Input line: Look up pKi for this molecule: Cc1cc(C(=O)Nc2cc(C(=O)O)cc([N+](=O)[O-])c2)no1 [Compound 9]
Output line: < 4.30

Input line: Note, next up: CC1OC(Nc2cc(C(=O)O)cc([N+](=O)[O-])c2)C(O)C(O)C1O (stereo not drawn) [Compound 2]
Output line: 5.87

Input line: Note, next up: O=C(O)c1ccc(Sc2ccccc2C(=O)O)c([N+](=O)[O-])c1 [Compound 4]
Output line: < 4.30

Input line: Note, next up: CCOC(=O)C1CCN(c2ccc(C(=O)O)cc2[N+](=O)[O-])CC1 [Compound 6]
Output line: < 4.30

Input line: Note, next up: O=C(O)c1ccc(Sc2nnc(Sc3ccc(C(=O)O)cc3[N+](=O)[O-])s2)c([N+](=O)[O-])c1 [Compound 8]
Output line: < 4.30

Input line: Note, next up: CS(=O)(=O)c1ccc(C(=O)O)cc1[N+](=O)[O-] [Compound 7]
Output line: 5.84

----------
- Tested system: hCA IX (Homo sapiens)
- Construct: made in house
- Test name: stopped-flow CO2 hydrase assay, hCA IX
- Format: biochemical
- Condition details: ratio of Ki values
Record form. Attribute: Selectivity Index hCA II/hCA IX. Fill in for each entry.
Reply: number alone, nothing else.

Input line: Look up Selectivity Index hCA II/hCA IX for this compound: CC1OC(Nc2cc(C(=O)O)cc([N+](=O)[O-])c2)C(O)C(O)C1O (stereo not shown)
Output line: 68.3

Input line: Note, next up: `O=C(O)c1ccc(Sc2ccccc2C(=O)O)c([N+](=O)[O-])c1`
Output line: 15.3
